Cited source: patent US20130133089A1

targetOfAssay: T1, Recombinant human leptin binding domain (hLBD) (human, UniProt P48357 428-635, biotinylated with Sulfo-NHS-LC-Biotin in the yeast display assays; not labelled when immobilized in the plate binding assay)
T1 construct: CRH2 sub-domain of the leptin receptor; Prepared in the applicants' laboratory; also called soluble human leptin receptor; CHR2
T1 sequence (looked up): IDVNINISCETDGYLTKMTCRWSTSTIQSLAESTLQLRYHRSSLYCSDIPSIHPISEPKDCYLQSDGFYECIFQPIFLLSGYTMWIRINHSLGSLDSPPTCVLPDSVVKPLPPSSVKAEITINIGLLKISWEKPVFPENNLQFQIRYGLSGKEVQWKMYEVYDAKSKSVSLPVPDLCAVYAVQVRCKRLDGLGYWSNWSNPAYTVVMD
experimentNotes: yeast display, flow cytometry titration with biotinylated hLBD (FIG. 4B)
Consider the following binders and their measured pKd readings.
Please express pKd as -log10 of the molar concentration.

Before answering, review these 3 worked examples.
Determine its reported pKd: yeast-displayed mouse leptin clone H19 (D23G, T37A, G44D) (ligand, UniProt P41160 22-167, looked up, not shown: large carriers; small tags and cut ends, mature) VPIQKVQDDTKTLIKTIVTRINGISHTQSVSAKQRVAGLDFIPDLHPILSLSKMDQTLAVYQQVLTSLPSQNVLQIANDLENLRDLLHLLAFSKSCSLPQTSGLQKPESLDGVLEASLYSTEVVALSRLQGSLQDILQQLDVSPEC
7.16

Give recorded pKd. yeast-displayed mouse leptin clone H7 (K11R, Q34R, T37A, F92C, S97Y, I136V) (ligand, UniProt P41160 22-167, looked up, not shown: large carriers; small tags and cut ends, mature; also called H18; H27) VPIQKVQDDTRTLIKTIVTRINDISHTQSVSAKRRVAGLDFIPGLHPILSLSKMDQTLAVYQQVLTSLPSQNVLQIANDLENLRDLLHLLACSKSCYLPQTSGLQKPESLDGVLEASLYSTEVVALSRLQGSLQDVLQQLDVSPEC
7.08

Please report pKd for the following binder: yeast-displayed mouse leptin clone H3 (D23G, L68M, S97F, S132Y) (ligand, UniProt P41160 22-167, looked up, not shown: large carriers; small tags and cut ends, mature; also called H15; H4) VPIQKVQDDTKTLIKTIVTRINGISHTQSVSAKQRVTGLDFIPGLHPILSLSKMDQTLAVYQQVLTSMPSQNVLQIANDLENLRDLLHLLAFSKSCFLPQTSGLQKPESLDGVLEASLYSTEVVALSRLQGYLQDILQQLDVSPEC
7.03

Continuing:
Give the measured pKd for yeast-displayed mouse leptin clone H6 (D23G, V30D, Y119H) (ligand, UniProt P41160 22-167, looked up, not shown: large carriers; small tags and cut ends, mature) VPIQKVQDDTKTLIKTIVTRINGISHTQSDSAKQRVTGLDFIPGLHPILSLSKMDQTLAVYQQVLTSLPSQNVLQIANDLENLRDLLHLLAFSKSCSLPQTSGLQKPESLDGVLEASLHSTEVVALSRLQGSLQDILQQLDVSPEC
7.00

Name the recorded pKd of the binder listed here: yeast-displayed mouse leptin clone H22 (T12I) (ligand, UniProt P41160 22-167, looked up, not shown: large carriers; small tags and cut ends, mature) VPIQKVQDDTKILIKTIVTRINDISHTQSVSAKQRVTGLDFIPGLHPILSLSKMDQTLAVYQQVLTSLPSQNVLQIANDLENLRDLLHLLAFSKSCSLPQTSGLQKPESLDGVLEASLYSTEVVALSRLQGSLQDILQQLDVSPEC
7.08

Give the reported value of pKd for this record: yeast-displayed mouse leptin clone H30 (D23H) (ligand, UniProt P41160 22-167, looked up, not shown: large carriers; small tags and cut ends, mature) VPIQKVQDDTKTLIKTIVTRINHISHTQSVSAKQRVTGLDFIPGLHPILSLSKMDQTLAVYQQVLTSLPSQNVLQIANDLENLRDLLHLLAFSKSCSLPQTSGLQKPESLDGVLEASLYSTEVVALSRLQGSLQDILQQLDVSPEC
7.39
